Target: cyclin D1/cdk 4 enzyme (Homo sapiens, UniProt P11802)
Construct: made in house; host or cells: Sf9 insect cells, recombinant baculovirus
Sequence (P11802 whole entry, species assumed): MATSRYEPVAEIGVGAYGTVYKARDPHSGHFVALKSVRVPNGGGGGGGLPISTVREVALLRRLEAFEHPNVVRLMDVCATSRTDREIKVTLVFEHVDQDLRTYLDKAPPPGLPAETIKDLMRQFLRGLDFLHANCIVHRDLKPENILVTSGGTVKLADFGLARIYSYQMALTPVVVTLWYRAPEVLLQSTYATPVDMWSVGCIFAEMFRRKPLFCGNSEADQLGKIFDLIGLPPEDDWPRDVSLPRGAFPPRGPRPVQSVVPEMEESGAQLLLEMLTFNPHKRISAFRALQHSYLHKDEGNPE
Sequence (P24385 whole entry partner, species assumed): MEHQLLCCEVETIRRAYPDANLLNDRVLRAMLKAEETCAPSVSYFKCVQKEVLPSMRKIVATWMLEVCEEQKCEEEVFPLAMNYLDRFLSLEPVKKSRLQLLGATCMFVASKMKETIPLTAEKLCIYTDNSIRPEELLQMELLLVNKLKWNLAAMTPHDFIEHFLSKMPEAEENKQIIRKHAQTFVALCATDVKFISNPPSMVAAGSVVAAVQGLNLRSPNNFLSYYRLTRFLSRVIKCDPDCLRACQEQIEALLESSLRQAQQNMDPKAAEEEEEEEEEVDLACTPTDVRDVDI
Assay: CDK4 ELISA kinase assay (phospho-Rb ser 795 detection)
Type: biochemical
Conditions: In Vitro Enzyme Assays, 200 μM ATP, read-out: CDK4 IC50
pIC50: −log10 of the molar value.
Tick Satisfied if pIC50 is 6 or greater. Tick Not satisfied if pIC50 is less than 6.

In: API: above_or_equal(metric=pIC50, cutoff=6) for item CC(C)(O)[C@H]1CCCN1Cc1ccc(N/C=C2\C(=O)NC(=O)c3ccc(I)cc32)cc1
Out: Satisfied

In: API: above_or_equal(metric=pIC50, cutoff=6) for item CN1CCN(c2ccc(N/C=C3\C(=O)N(CO)C(=O)c4ccc(Br)cc43)cc2)CC1
Out: Not satisfied

In: API: above_or_equal(metric=pIC50, cutoff=6) for item O=C1NC(=O)c2ccc(-c3ccc(Cl)s3)cc2/C1=C/Nc1ccc(CN2CCC[C@H]2CO)cc1
Out: Satisfied

In: API: above_or_equal(metric=pIC50, cutoff=6) for item Cc1cc(N/C=C2\C(=O)NC(=O)c3ccc(-c4ccsc4)cc32)cnc1N1C[C@@H](C)N[C@@H](C)C1
Out: Satisfied

In: API: above_or_equal(metric=pIC50, cutoff=6) for item O=C1NC(=O)c2ccc(-c3ccoc3)cc2/C1=C/NCc1ccc(OC(F)F)c(O)c1
Out: Satisfied

In: API: above_or_equal(metric=pIC50, cutoff=6) for item C[C@@H]1CN(c2ccc(N/C=C3\C(=O)NC(=O)c4ccc(-c5ccoc5)cc43)cc2)C[C@H](C)N1C
Out: Satisfied

In: API: above_or_equal(metric=pIC50, cutoff=6) for item O=C1NC(=O)c2ccccc2/C1=C/Nc1ccc2cn[nH]c2c1
Out: Not satisfied

---

Target: cyclin D1/cdk 4 enzyme (Homo sapiens, UniProt P11802)
Construct: made in house; host or cells: Sf9 insect cells, recombinant baculovirus
Experiment: CDK4 ELISA kinase assay (phospho-Rb ser 795 detection)
Type: biochemical
Settings: In Vitro Enzyme Assays, 200 μM ATP, read-out: CDK4 IC50
pIC50: −log10 of the molar value.
Tick TRUE if pIC50 is 6 or greater. Tick FALSE if pIC50 is less than 6.

In: API: above_or_equal(metric=pIC50, cutoff=6) for item C=CC(=O)Nc1ccc(CN/C=C2\C(=O)NC(=O)c3ccc(I)cc32)cc1O
Out: TRUE

In: API: above_or_equal(metric=pIC50, cutoff=6) for item CN(C)C(=O)C1CCN(c2ccc(N/C=C3\C(=O)NC(=O)c4ccc(I)cc43)cc2)CC1
Out: FALSE

In: API: above_or_equal(metric=pIC50, cutoff=6) for item COc1cccc(-c2ccc3c(c2)/C(=C/Nc2ccc(CN4CCCCC4)cc2)C(=O)NC3=O)c1
Out: FALSE

In: API: above_or_equal(metric=pIC50, cutoff=6) for item CN1CCN(c2ccc(N/C=C3\C(=O)NCc4ccccc43)cc2)CC1
Out: FALSE

In: API: above_or_equal(metric=pIC50, cutoff=6) for item COc1ccc2c(c1)C(=CNc1ccc(CN3CCCCC3)cc1)C(=O)NC2=O
Out: FALSE

In: API: above_or_equal(metric=pIC50, cutoff=6) for item COC[C@H]1CCCN1Cc1ccc(N/C=C2\C(=O)NC(=O)c3ccc(-c4ccsc4)cc32)cc1
Out: TRUE

In: API: above_or_equal(metric=pIC50, cutoff=6) for item CC1CN(c2ccc(N/C=C3\C(=O)NC(=O)c4ccc(I)cc43)cc2)CCN1C (centres unmarked)
Out: FALSE
